# Target System: Cholinesterase (Equus caballus)
# Assay Name: Inhibition of equine serum BChE at 100 uM using butyrylthiocholine iodide as substrate preincubated for 10 mins followed by substrate addition and measured for 10 mins by Ellman's method relative to control
# Condition Details: time 20.0 min
Please respond with reported inhibition for every item in the list.
Quick reminder: number only, in %, skip the unit.

Looking up Cn1c(=O)oc2cc(NC(=O)CCN3CCN(Cc4ccccc4)CC3)ccc21 , I found its inhibition recorded as 30

Looking up Cn1c(=O)sc2cc(NC(=O)CCN3CCC(Cc4ccccc4)CC3)ccc21 , I found its inhibition recorded as 60

For this compound ( Cn1c(=O)sc2cc(NC(=O)CCN3CCN(Cc4ccc(F)cc4)CC3)ccc21 ), measured inhibition is 52

Entry Cn1c(=O)oc2cc(NC(=O)CCN3CCN(Cc4ccc(F)cc4)CC3)ccc21 ; inhibition = 21

----------
# Target System: Cholinesterase (Equus caballus)
# Assay Name: Inhibition of equine serum BChE at 100 uM using butyrylthiocholine iodide as substrate preincubated for 10 mins followed by substrate addition and measured for 10 mins by Ellman's method relative to control
# Condition Details: time 20.0 min
For each entry below, report its inhibition value.
Write it as a number; the unit % goes unstated.

Form: compound = Cn1c(=O)sc2cc(C(=O)CCN3CCC(c4ccccc4)CC3)ccc21 ; inhibition = 79

Kindly note the recorded inhibition for Cn1c(=O)sc2cc(NC(=O)CCCCN3CCC(c4ccccc4)CC3)ccc21 , which is 96

The measured inhibition associated with Cn1c(=O)sc2cc(NC(=O)CCN3CCC(c4ccccc4)CC3)ccc21 reads 81

----------
# Target System: Cholinesterase (Equus caballus) (UniProt P81908)
# Sequence (P81908 whole entry): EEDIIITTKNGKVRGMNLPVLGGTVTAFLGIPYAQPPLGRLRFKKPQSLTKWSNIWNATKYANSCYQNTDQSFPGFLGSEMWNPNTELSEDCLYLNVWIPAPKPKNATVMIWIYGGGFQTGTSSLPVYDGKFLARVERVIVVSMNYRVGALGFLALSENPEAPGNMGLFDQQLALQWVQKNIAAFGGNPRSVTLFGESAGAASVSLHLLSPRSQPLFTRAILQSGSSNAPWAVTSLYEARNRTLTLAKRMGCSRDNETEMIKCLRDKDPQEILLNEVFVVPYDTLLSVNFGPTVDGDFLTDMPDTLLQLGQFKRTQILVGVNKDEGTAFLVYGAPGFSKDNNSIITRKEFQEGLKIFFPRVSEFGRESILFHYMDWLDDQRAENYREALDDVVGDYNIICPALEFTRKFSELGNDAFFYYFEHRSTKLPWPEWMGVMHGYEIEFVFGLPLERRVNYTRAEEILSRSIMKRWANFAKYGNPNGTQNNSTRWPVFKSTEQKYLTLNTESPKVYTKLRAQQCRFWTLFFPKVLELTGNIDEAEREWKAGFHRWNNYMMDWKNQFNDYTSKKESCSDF
# Assay Name: Inhibition of equine serum BChE at 100 uM using butyrylthiocholine iodide as substrate preincubated for 10 mins followed by substrate addition and measured for 10 mins by Ellman's method relative to control
# Condition Details: time 20.0 min
Endpoint: inhibition

inhibition measured on Cn1c(=O)sc2cc(NC(=O)CCCN3CCC(c4ccccc4)CC3)ccc21 = 90%

Record summary for O=C(CCN1CCN(Cc2ccccc2)CC1)Nc1ccc2nc(-c3ccccc3)oc2c1 : reported inhibition = < 10%

Data point: Cn1c(=O)oc2cc(NC(=O)CCN3CCN(c4ccc(F)cc4)CC3)ccc21 ; inhibition = < 10%

Item: O=C(CCN1CCN(Cc2ccccc2)CC1)Nc1ccc2nc(-c3ccccc3)sc2c1 | inhibition: < 10%

Reported inhibition ( Cn1c(=O)oc2cc(NC(=O)CCCN3CCN(Cc4ccccc4)CC3)ccc21 ) = < 10%

Notebook: Cn1c(=O)oc2cc(NC(=O)CCN3CCN(Cc4ccc(Cl)cc4)CC3)ccc21 , inhibition read as < 10%

Data point: COc1ccc(CN2CCN(CCC(=O)Nc3ccc4c(c3)oc(=O)n4C)CC2)cc1 ; inhibition = < 10%

// COc1ccc(N2CCN(CCC(=O)Nc3ccc4c(c3)oc(=O)n4C)CC2)cc1 : inhibition value = < 10%

Noted for Cn1c(=O)oc2cc(NC(=O)CCN3CCC(Cc4ccccc4)CC3)ccc21 : its inhibition reads 47%

The compound identified as CN(CCC(=O)Nc1ccc2c(c1)oc(=O)n2C)Cc1ccccc1 registered its inhibition at 42%

According to the records, this compound Cn1c(=O)oc2cc(NC(=O)CCN3CCC(c4ccccc4)CC3)ccc21 displays inhibition of < 10%

The recorded inhibition for entry Cn1c(=O)sc2cc(NC(=O)CCN3CCN(c4ccc(Cl)cc4)CC3)ccc21 equals < 10%

Reported inhibition for Cn1c(=O)sc2cc(NC(=O)CCCCN3CCN(Cc4ccccc4)CC3)ccc21 was < 10%

Short answer for Cn1c(=O)sc2cc(NC(=O)CCCN3CCN(Cc4ccccc4)CC3)ccc21 : inhibition was < 10%

Entry source: ChEMBL document CHEMBL4706649
